Molecular target: T1, recombinant human full-length TDP-43 (TAR DNA-binding protein 43), soluble (human, UniProt Q13148 1-414)
T1 construct: Used on Luminex beads, coated on ELISA plates, and immobilized or injected in SPR; also called FL TDP-43; TDP-43 protein
T1 sequence (Q13148 whole entry): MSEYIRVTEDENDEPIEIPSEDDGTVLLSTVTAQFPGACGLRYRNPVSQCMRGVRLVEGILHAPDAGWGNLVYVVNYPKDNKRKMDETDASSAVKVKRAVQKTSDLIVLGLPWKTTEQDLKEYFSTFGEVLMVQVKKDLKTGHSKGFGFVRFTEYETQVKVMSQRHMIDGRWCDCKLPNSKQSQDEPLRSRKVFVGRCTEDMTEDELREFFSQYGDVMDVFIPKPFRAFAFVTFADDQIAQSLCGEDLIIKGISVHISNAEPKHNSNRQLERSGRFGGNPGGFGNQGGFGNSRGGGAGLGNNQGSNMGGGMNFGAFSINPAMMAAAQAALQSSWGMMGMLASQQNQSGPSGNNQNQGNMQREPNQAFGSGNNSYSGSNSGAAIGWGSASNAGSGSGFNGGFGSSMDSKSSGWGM
Assay: SPR 8K, immobilized soluble TDP-43
Description: The instrument was primed with running buffer PBS-P+ and flow cells (Fc) 1 and 2 of channels 1-8 were activated with a fresh solution of EDC/NHS (Amine Coupling Kit, 1:1 ratio of both reagents, GE Healthcare Life Sciences, BR-1006-33) at 10 µL/min for 420 sec. […] Results obtained from single-cycle kinetics were double-referenced using the blank Fc 1 and buffer cycles and evaluated using Biacore 8 K evaluation software using the 1:1 kinetic fit model with RI and global Rmax. […]
# koff values compiled below
Respond numerically; units are s⁻¹ and should not be typed.

Illustrative cases are given below, each with its answer.
hACI-7069-633B12-Ab1_H19L14 (IgG4) (antibody, V domains shown) VH: QVQLVQSGAEVKKPGASVKVSCKTSGFTFTEYSMHWVRQAPGQRLEWIGGINPGNAGTSYNQKFKGRVTITVDTSASTAYMELSSLRSEDTAVYYCARESWGQGTTVTVSS VL: DVVMTQSPLSLPVTLGQPASISCKSSQSLLHSDAKTYLNWLQQRPGQSPRRLIYLVSKLDSGVPDRFSGSGSGTDFTLKISRVEAEDLGVYYCFQGTHFPHTFGQGTKLEIK; 3e-05
hACI-7069-633B12-Ab1_H16L14 (IgG4) (antibody, V domains shown) VH: EVQLVQSGAEVKKPGASVKVSCKASGFTFTEYSMHWVRQAPGQRLEWMGGINPGNAGTSYNQKFKGRVTITVDTSASTAYMELSSLRSEDTAVYYCARESWGQGTTVTVSS VL: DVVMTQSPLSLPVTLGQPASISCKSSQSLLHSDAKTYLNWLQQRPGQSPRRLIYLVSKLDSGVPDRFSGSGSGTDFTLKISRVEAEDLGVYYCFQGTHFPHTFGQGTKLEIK; 3.3e-05

Would you kindly look at the next entry?
Which koff value belongs to hACI-7069-633B12-Ab1_H19L19 (IgG4) (antibody, V domains shown) VH: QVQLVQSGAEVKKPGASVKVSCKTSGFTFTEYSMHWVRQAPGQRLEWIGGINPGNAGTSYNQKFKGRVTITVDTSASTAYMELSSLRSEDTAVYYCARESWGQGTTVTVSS VL: DVVMTQSPLSLPVTLGQPASISCKSSQSLLHSDAKTYLNWLQQRPGQSPKRLIYLVSKLDSRVPDRFSGSGSGTDFTLKISRVEAEDLGVYYCFQGTHFPHTFGQGTKLEIK ?
1.5e-05

Entry source: patent US20230322908A1
